Where do the numbers come from? From PubChem BioAssay (Tox21).

Experiment: qHTS assay to identify small molecule antagonists of the TGF-beta/Smad signaling pathway - cell viability counter screen (AID 1346824); note: nearly all actives have a fitted effect of over 50% in size
Conditions: SBE-bla HEK293T viability, CellTiter-Glo luminescence; series mostly up to 76.8 µM
Records with an inconclusive call do not appear. Active and inactive are the calls of the source. Calls come from the whole dose curve; as a rule, active = well fitted cell-killing curve with a large enough effect in the repeat runs; inconclusive = weak or mixed curves; inactive = flat fitted curve, though single readings scatter.
Outcomes: True (active), False (inactive)

Compound	Assigned Category
CC[C@H](C)[C@H]1O[C@]2(C=C[C@@H]1C)C[C@@H]1C[C@@H](C/C=C(\C)[C@@H](O[C@H]3C[C@H](OC)[C@@H](O[C@H]4C[C@H](OC)[C@@H](NC)[C@H](C)O4)[C@H](C)O3)[C@@H](C)/C=C/C=C3\CO[C@@H]4[C@H](O)C(C)=C[C@@H](C(=O)O1)[C@]34O)O2	True
O=C(O)CCCCCCNC1c2ccccc2CCc2ccccc21	False
CC(C)Br	False
C=CCOC(=O)c1ccccc1N	False
CC(Cc1ccccc1)N(C)Cc1ccco1 (stereo not given)	False
CCCCn1cc[n+](C)c1.[Cl][Fe-]([Cl])([Cl])[Cl]	False
CCCCc1ccccc1	False
COC(=O)C(C)N(C(=O)c1ccco1)c1c(C)cccc1C (stereo not given)	False
CC1(C)[C@H](/C=C2\CCSC2=O)[C@@H]1C(=O)OCc1coc(Cc2ccccc2)c1	False
[Cl-].[Cl-].[Sn+2]	False

----------
Test: qHTS assay to identify small molecule agonists of the estrogen receptor beta (ER-beta) signaling pathway - cell viability counter screen (AID 1259380); note: nearly all actives have a fitted effect of over 30% in size
Conditions: ER-beta-bla HEK293T viability, CellTiter-Glo luminescence, 16 h; series mostly up to 92.4 µM
Results filed as inconclusive are left out. The source made the active and inactive calls. The call rests on the fitted dose curve; in most records, active means well fitted cell-killing curve with a large enough effect in the repeat runs; inconclusive means weak or mixed curves, or effect the other way; inactive means flat fitted curve, though single readings scatter.
Outcome codes: active, inactive

>>> df
                                    compound  assigned_category
 0  [F][Sn]([c]1ccccc1)([c]1ccccc1)[c]1ccccc1             active
 1  CC(=O)O.CC(=O)O.CC(=O)O.CC(=O)O.CC(=O)O.CC(=O)O.CC(=O)O.O.O.[Cr].[Cr].[Cr]           inactive
 2        CN/C(=N\[N+](=O)[O-])NCc1cnc(Cl)s1           inactive
 3                  CCC1(CC)C(=O)N=C(O)NC1=O           inactive
 4               c1csc(-c2ccc(-c3cccs3)s2)c1           inactive
 5                    O=[N+]([O-])[O-].[Tl+]             active
 6  C[C@@H]1CC2=CC(=O)CC[C@@H]2[C@H]2CC[C@@]3(C)[C@@H](CC[C@]3(C)O)[C@@H]21           inactive
 7                 Clc1ccc(C(Cl)(Cl)Cl)cc1Cl           inactive
 8                         CCCCN(CCCC)C(=S)S           inactive
 9                 CCN(CC)CCc1c[nH]c2ccccc12           inactive
10        O=C(O)CCCCCCNC1c2ccccc2CCc2ccccc21           inactive
11                        Nc1nc(N)c(N)c(N)n1           inactive
12  N#Cc1ccc(N(CC(N)=O)CC(F)(F)F)cc1C(F)(F)F           inactive
13                                    N#CCCl             active
14         Clc1ccc(C2(Cn3cncn3)OCCO2)c(Cl)c1           inactive
15  CCN1CCC2(CC1)COc1cc3c(cc12)N(C(=O)c1ccc(-c2ccc(-c4nnc(C)o4)cc2C)cc1)CC3             active
16     COc1ccc(Cc2nccc3cc(OC)c(OC)cc23)cc1OC           inactive
17  CCN(CC)CCN1C(=O)CN=C(c2ccccc2F)c2cc(Cl)ccc21           inactive
18                                       CNN           inactive
19                   CN(C)CCc1c[nH]c2ccccc12           inactive
20  COc1nc(C)nc(NC(=O)NS(=O)(=O)c2ccccc2Cl)n1           inactive
21  O.O.O.O=C([O-])[C@H]([O-])[C@@H]([O-])C(=O)[O-].O=C([O-])[C@H]([O-])[C@@H]([O-])C(=O)[O-].[K+].[K+].[Sb+3].[Sb+3]           inactive
22  CC(=O)[O][Pb]([c]1ccccc1)([c]1ccccc1)[c]1ccccc1             active
23  CCC1COC(Cn2cncn2)(c2ccc(Cl)cc2Cl)O1 (stereo not given)           inactive
24                          Nc1nc(N)nc(Cl)n1           inactive
25                COc1c2c(cc3c1OCO3)CCN(C)C2           inactive
26              CC(=O)[O-].CC(=O)[O-].[Co+2]           inactive
27   [C-]1=CC=CC1.[Cl][Zr+2][Cl].c1cc[cH-]c1           inactive
28  O=C(NC(=O)c1c(F)cccc1F)Nc1ccc(Oc2ccc(C(F)(F)F)cc2Cl)cc1F           inactive
29  COC(=O)c1cc(Oc2ccc(Cl)cc2Cl)ccc1[N+](=O)[O-]           inactive
30  CCOP(=S)(NC(C)C)Oc1ccccc1C(=O)OC(C)C (stereo not given)             active
31                   N#Cc1c2ccccc2cc2ccccc12           inactive
32                                    C=CCBr           inactive
33  CN1CCc2cc(Cl)c(O)cc2[C@H]2c3ccccc3CC[C@@H]21             active
34  NC1CCC(CC2CCC(N)CC2)CC1 (stereo not given)           inactive
35             OCC(Br)CBr (stereo not given)           inactive
36                          C=Cc1cccc(CCl)c1           inactive
37              CC(Cl)CCl (stereo not given)           inactive
38             O=[N+]([O-])c1ccccc1-c1ccccc1           inactive
39  CCCCC(CC)COC(=O)OOC(C)(C)C (stereo not given)           inactive
40  CCNS(=O)(=O)C(F)(F)C(F)(F)C(F)(F)C(F)(F)C(F)(F)C(F)(F)C(F)(F)C(F)(F)F             active
41  CCC[CH2][Sn]([CH2]CCC)([CH2]CCC)[O][Sn]([CH2]CCC)([CH2]CCC)[CH2]CCC             active
42  C[C@]12Cc3cn[nH]c3C[C@@H]1CC[C@@H]1[C@@H]2CC[C@@]2(C)[C@H]1CC[C@]2(C)O             active
43               COC(=O)/C=C(\C)OP(=O)(OC)OC           inactive
44  COC(=O)C(C)N(C(=O)c1ccco1)c1c(C)cccc1C (stereo not given)           inactive
45                                      CSSC           inactive
46  CC(C)=CCN1CC[C@@]2(C)c3cc(O)ccc3C[C@@H]1[C@@H]2C           inactive
47  CN1CCc2cc3c(cc2C1O)OCO3 (stereo not given)           inactive
48  COc1cnc(OC)n2nc(NS(=O)(=O)c3c(OCC(F)F)cccc3C(F)(F)F)nc12           inactive
49  C=C(C)C(=O)[O][Sn]([CH2]CCC)([CH2]CCC)[CH2]CCC             active

----------
Test: qHTS assay to identify small molecule antagonists of the estrogen receptor alpha (ER-alpha) signaling pathway - cell viability counter screen (AID 743074);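 note: HEK293 cells carrying ER-alpha-UAS-bla reporter stimulated with 17beta-estradiol; nearly all actives have a fitted effect of over 45% in size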
Conditions: ERalpha-bla HEK293 viability, CellTiter-Glo luminescence, 18 h; series mostly up to 69.4 µM
Inconclusive results are not listed. Active and inactive are the calls of the source. Calls come from the whole dose curve.
Outcome codes: class 1 for active, class 0 for inactive

                                    molecule  assigned_category
 0                                  CC1CCCC1            class 0
 1                   N#Cc1c2ccccc2cc2ccccc12            class 0
 2  CC(Cc1ccc(OCC(=O)O)cc1)NCC(O)c1csc(C(F)(F)F)n1 (stereo not drawn)            class 0
 3         Clc1ccc(C2(Cn3cncn3)OCCO2)c(Cl)c1            class 0
 4            O=C1C(Cl)=C(Cl)C(=O)C(Cl)=C1Cl            class 0
 5                                     ClCBr            class 0
 6  CCC[CH2][Sn]([CH2]CCC)([CH2]CCC)[O][Sn]([CH2]CCC)([CH2]CCC)[CH2]CCC            class 1
 7        Clc1ccc(C(c2ccc(Cl)cc2)C(Cl)Cl)cc1            class 0
 8                                    CN=C=O            class 0
 9  CCN(CC)CCN1C(=O)CN=C(c2ccccc2F)c2cc(Cl)ccc21            class 0
10  C=CC(=O)[O][Sn]([CH2]CCC)([CH2]CCC)[CH2]CCC            class 1
11  COP(=S)(NC(C)C)Oc1ccc(C)cc1[N+](=O)[O-] (stereo not drawn)            class 0
12                                  CCCCON=O            class 0
13                        CNC(C)(C)Cc1ccccc1            class 0
14               Cc1cc(C2CC2)nc(Nc2ccccc2)n1            class 0
15         Cc1ccc2cc3c(ccc4ccccc43)c3c2c1CC3            class 0
16  CC(C)[C@@H](Nc1ccc(C(F)(F)F)cc1Cl)C(=O)OC(C#N)c1cccc(Oc2ccccc2)c1 (stereo partly drawn)            class 0
17  O=[N+]([O-])c1cc(C(F)(F)F)c(Cl)c([N+](=O)[O-])c1Nc1ncc(C(F)(F)F)cc1Cl            class 1
18  O=S1OCC2C(CO1)C1(Cl)C(Cl)=C(Cl)C2(Cl)C1(Cl)Cl (stereo not drawn)            class 0
19                                     C#CCO            class 0
20        CC(=O)[O-].CC(=O)[O-].O.O.O.[Pb+2]            class 0
21                             S=C=Nc1ccccc1            class 0
22            COP(=S)(OC)Oc1nc(Cl)c(Cl)cc1Cl            class 0
23                 CC1CN1 (stereo not drawn)            class 0
24  CSC(=O)c1c(C(F)F)nc(C(F)(F)F)c(C(=O)SC)c1CC(C)C            class 0
25                         Oc1ccc(Cl)c(Cl)c1            class 0
26              CC(=O)[O-].CC(=O)[O-].[Co+2]            class 0
27                                      CCCN            class 0
